Data provenance is the supplement of paper PMC5908809.

Test system: YT (IL-2 2.5 ng/mL)
Experiment: percent inhibition of viability; higher = more inhibition;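 further: normalised to DMSO-only wells as negative and benzethonium chloride as positive control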
Conditions: 72 h; 1 nM
measuredParameter: percent inhibition of viability (%)

{"compound": "COC1=CC(c2cc3ccccc3[nH]2)=N/C1=C\\c1[nH]c(C)cc1C [Obatoclax] (max concentration tested 10000 nM)", "number": 0.99}
{"compound": "CCn1c(=O)c(-c2cc[nH]n2)cc2c(C)nc(N)nc21 [Voxtalisib] (max concentration tested 10000 nM)", "number": -4.53}
{"compound": "c1ccc2c(CCNc3ccc(Nc4ccncc4)cc3)c[nH]c2c1 [Serdemetan] (max concentration tested 10000 nM)", "number": -0.01}
{"compound": "Oc1ccc2c(c1)CC[C@H](c1ccccc1)[C@@H]2c1ccc(OCCN2CCCC2)cc1 [Lasofoxifene] (max concentration tested 1000 nM)", "number": 2.01}
{"compound": "C[C@@]1(C(=O)Nc2ccc(F)nc2)CCCN1c1nc(Nc2cc(C3CC3)n[nH]2)c2cccn2n1 (max concentration tested 10000 nM)", "number": 3.08}
{"compound": "Cc1sc2c(c1C)C(c1ccc(Cl)cc1)=N[C@@H](CC(=O)OC(C)(C)C)c1nnc(C)n1-2 [(+)JQ1] (max concentration tested 10000 nM)", "number": 1.34}
